Hello, the source for this data is the nanobody polyreactivity screen of Harvey et al. (2022), in case you need it.

Assay: yeast display, Sf9 membrane polyspecificity reagent, FACS + sequencing; frameworks hold sequencing errors
endpoint.name: polyreactivity (PSR sort gate)

Some entries whose results are on file:
QVQLVESGGGLVQAGGSLRLSCAASGSIFAIYAMGWYRQAPGKERELVAAISYGDGSTYYADSVKGRFTISRDNAKNTVYLQMNSLKPEDTAVYYCAVGTRVKYDYWGQGTQVTVSS; high polyreactivity
QVQLVESGGGLVQAGGSLRLICAASGFIYHNAMGWYRQATGTERELVARITWSGGSTSYADSVKGRFTISRDNAKNTVYLQKNSLKPEDTAVYYCAARGVVYRYGASRGYWGQGTQVTVSS; high polyreactivity
QVQLVESGGGLLQAGGSLRLSCAASGYTFWLYAMGWYRQAPGKDRELVATISRRAGTTYYADSVKGRFTISRDNAKNTVYLQMNSLKPEDTAVYYCAKKSHSLLGQYGEDYDYWGQGTQVTVSS; low polyreactivity
QVQLVESGGGLVQAGGSLRLSCAASGFTLDWYAMGWYRQAPGKERELVAAIWSAGTTYYADSVKGRFTISRDNAKNTVYLQMNSLKPEDTAVYYCATVSDYDFGLYDYWGQGTQVTVSS; low polyreactivity
QVHRVVSGGGLVQAGGSLRLSCSAYGFTFYLYAMGWYRQAPGKERELVAAISSGTSTYYADSVKGRFTISRDNAKNTVYLQMNSLKPEDTAVYYCDAATNWGGEYWGHGTQVTVSS; high polyreactivity
QVQLVESGGGLIQAGGSLRLRCAASGSTFPYYAMGWYRQAPGKEREFVAAIRFSGSSTYYADSVKGRFTISRDNAKNTVFLQMNRLIPEDTAVYYCATDYWLPSYSYDYWGQGTQVTVSS; low polyreactivity
QVQLVESGGGLVQAGGSLRLSCAASGIIFLNNAMGLYIQAPGKERELVAVISFIGDSTYYADSVKGRFTISRDNSKNSVYLQMNSLKPEDTAVYYCAADYYLPYWFFVGYDYWGQGTQVTVSS; low polyreactivity
QVQLVESGGGLVQAGGSLRLSCAASGRTFTYYAMGWYRRAPGKERELVAAIRWTGDSTYYADSVKGRFTISRDNAKNTVYLQMNSLKPEHTAVYYCATQARWQYDGGIRWYYYWGQGTQVTVSS; high polyreactivity
QVQIVESGGGLVQAGGSLRLSCAASGLIIPFYAMGWYRQAPGKERELVAAISWSAGSTYYADSVKGRFTISRDNAKNTVYLQMNSLKPEDTAGYYCAATAYYYYDYDYWGQGTQVTVSS; low polyreactivity
QVQLVESGGGLVQAGGSLRLSCAASGLTFFYYAMGWYRQAPGKERELVASISSSGITNYADSVKGRFTISRDNAKNTVYLQMNSLKPEDTAVYYCASQYYISPLRYYSPTGGYWGQGTQVTVSS; high polyreactivity

Okay, next one:
Query: Using the record for "QVQLVESGGGLVQAGGSLRLSCAASGFTFGGYAMGWYRQAPGNERELVAAISKSGGRTYYADSVKGRFTISRDNAKNTVYLQMNSLKPEDTAVYYCAASTIWHYDSWGQGTQVTVSS" , report its polyreactivity (PSR sort gate).
Response: high polyreactivity
